- SUBJECT_OF_TEST: R103E-SWELL1 expressing HEK-293 cells (R103E O/E) (Homo sapiens, UniProt Q8IWT6, R103E)
- Construct: P2A:EGFP (C); host or cells: HEK-293, Lipofectamine 2000, co-transfected with CMV-Cre; EGFP+ cells recorded
- Sequence (Q8IWT6 whole entry R103E): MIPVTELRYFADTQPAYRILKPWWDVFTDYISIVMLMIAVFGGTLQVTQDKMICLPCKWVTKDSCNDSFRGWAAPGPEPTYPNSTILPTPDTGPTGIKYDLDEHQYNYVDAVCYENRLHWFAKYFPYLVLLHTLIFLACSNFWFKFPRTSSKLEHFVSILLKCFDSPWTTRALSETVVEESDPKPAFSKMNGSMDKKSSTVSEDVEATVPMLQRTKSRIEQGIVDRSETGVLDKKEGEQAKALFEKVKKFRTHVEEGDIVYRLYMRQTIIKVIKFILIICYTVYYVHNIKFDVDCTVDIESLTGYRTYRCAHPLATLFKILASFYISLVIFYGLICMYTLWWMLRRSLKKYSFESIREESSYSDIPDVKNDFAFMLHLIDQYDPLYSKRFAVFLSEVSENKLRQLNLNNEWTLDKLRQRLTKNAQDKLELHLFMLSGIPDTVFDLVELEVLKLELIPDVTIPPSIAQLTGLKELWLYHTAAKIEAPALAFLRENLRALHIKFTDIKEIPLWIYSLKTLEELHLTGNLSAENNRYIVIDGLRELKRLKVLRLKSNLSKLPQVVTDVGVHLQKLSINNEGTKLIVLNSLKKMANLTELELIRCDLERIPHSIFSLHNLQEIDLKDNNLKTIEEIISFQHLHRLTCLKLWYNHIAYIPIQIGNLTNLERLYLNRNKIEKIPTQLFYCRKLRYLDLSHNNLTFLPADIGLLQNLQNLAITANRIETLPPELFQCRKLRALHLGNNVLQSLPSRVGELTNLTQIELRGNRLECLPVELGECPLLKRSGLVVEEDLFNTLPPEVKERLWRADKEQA
- PROTOCOL_DESCRIPTION: ICl,SWELL inhibition in SWELL1-R103E overexpressing cells, patch-clamp
- Assay type: cell-based
- CONDITIONS_USED: R103E-SWELL1 overexpressing HEK-293 cells, compound applied at maximum current density; read-out: IC50 for ICl,SWELL inhibition, R103E O/E
MEASURED_ENDPOINT: IC50

> print(dat)
                                   molecule  measured.endpoint  measured.value
1  CCCCC1(C2CCCC2)Cc2cc(OCCCCCCC(=O)O)c(Cl)c(Cl)c2C1=O (stereo not shown) [SN-407]               IC50          4.2 µM

====

- PROTOCOL_DESCRIPTION: In vivo pharmacokinetics
- Parameters: species or system mouse
- CONDITIONS_USED: male, C57/BL6, mouse; Oral, 5 mg/kg, mice, plasma
MEASURED_ENDPOINT: AUC(0-inf)

> print(dat)
                                   molecule  measured.value
1  CCCCC1(C2CCCC2)Cc2cc(OCCCC(=O)O)c(Cl)c(Cl)c2C1=O (centres unmarked) [SN-401]    4680 ng·h/mL
2  CCCCC1(C2CCCC2)Cc2cc(OCCCCCC(=O)O)c(Cl)c(Cl)c2C1=O (centres unmarked) [SN-406]    3130 ng·h/mL

====

- PROTOCOL_DESCRIPTION: In vivo pharmacokinetics
- Set-up: species or system mouse
- CONDITIONS_USED: male, C57/BL6, mouse; Intravenous, 5 mg/kg, mice, plasma
Listing of entries alongside the reported AUC(0-inf).
MEASURED_ENDPOINT: AUC(0-inf) (ng·h/mL)

> print(dat)
                                   compound  measured.endpoint  measured.value
1  CCCCC1(C2CCCC2)Cc2cc(OCCCC(=O)O)c(Cl)c(Cl)c2C1=O (centres unmarked) [SN-401]         AUC(0-inf)            5960
2  CCCCC1(C2CCCC2)Cc2cc(OCCCCCC(=O)O)c(Cl)c(Cl)c2C1=O (centres unmarked) [SN-406]         AUC(0-inf)            6530

====

- SUBJECT_OF_TEST: ICl,SWELL (SWELL1-LRRC8 channel) in HEK-293 cells (Homo sapiens)
- Construct: applied when the endogenous HEK-293 cell ICl,SWELL current density reached 30 pA/pF; endogenous in cells; host or cells: HEK-293 (ATCC, #CRL-1573)
- Sequence (Q8IWT6 whole entry): as the sequence (Q8IWT6 whole entry R103E) above, with E103R counted along it
- PROTOCOL_DESCRIPTION: ICl,SWELL inhibition after hypotonic activation (open channel), patch-clamp
- Assay type: cell-based
MEASURED_ENDPOINT: IC50 (µM)

> print(dat)
                                   compound  measured.value
1  CCCCC1(C2CCCC2)Cc2cc(OCCCC(=O)O)c(Cl)c(Cl)c2C1=O (stereo not shown) [SN-401]             3.9

Cited source: paper PMC8831520
